Tested on: rodent lifetime carcinogenesis bioassay, tumor incidence TD50
Assay: carcinogenic potency in animals, long-term in vivo studies, CPDB compilation (AID 1745844)
Conditions: rat; strain Fischer 344; males; in feed; site: pancreas; lesion: acinar-cell adenoma; dosed 103 weeks; study length 104 weeks
test_readout: TD50 (mg/kg/day)
Could you give me the number in mg/kg/day? Just the number is fine.

Note to self: TD50 of Brc1c(Br)c(Br)c(Oc2c(Br)c(Br)c(Br)c(Br)c2Br)c(Br)c1Br with rodent lifetime carcinogenesis bioassay, tumor incidence TD50 was 13900

---

Test system: rodent lifetime carcinogenesis bioassay, tumor incidence TD50
Experiment: carcinogenic potency in animals, long-term in vivo studies, CPDB compilation (AID 1745844)
Settings: rat; strain Wistar; females; in feed; site: esophagus; lesion: squamous-cell papilloma; dosed 96 weeks; study length 101 weeks
test_readout: TD50

The compound listed as O=P(O)(OCC(Br)CBr)OCC(Br)CBr (stereo unspecified) has a reported TD50 of 394 mg/kg/day

---

System: rodent lifetime carcinogenesis bioassay, tumor incidence TD50
Assay: carcinogenic potency in animals, long-term in vivo studies, CPDB compilation (AID 1745844)
Conditions: rat; strain Fischer 344; females; in drinking water; site: skin; lesion: squamous-cell carcinoma + squamous-cell papilloma; dosed 96 weeks; study length 97 weeks
test_readout: TD50

get_value(item= COc1cc(-c2ccc(N=Nc3c(S(=O)(=O)O)cc4cc(S(=O)(=O)O)cc(N)c4c3O)c(OC)c2)ccc1N=Nc1c(S(=O)(=O)O)cc2cc(S(=O)(=O)O)cc(N)c2c1O , readout=TD50) returns 158 mg/kg/day

---

Test system: rodent lifetime carcinogenesis bioassay, tumor incidence TD50
Assay: carcinogenic potency in animals, long-term in vivo studies, CPDB compilation (AID 1745844)
Settings: rat; strain F344/DuCrj; females; in feed; site: any site (literature study); lesion: malignant tumor; dosed 104 weeks; study length 113 weeks
test_readout: TD50 (mg/kg/day)
Answer in mg/kg/day, number only, no unit symbol.

The recorded TD50 for S=c1nc[nH]c2nc[nH]c12 is 10.3

---

Tested on: rodent lifetime carcinogenesis bioassay, tumor incidence TD50
Experiment: carcinogenic potency in animals, long-term in vivo studies, CPDB compilation (AID 1745844)
Conditions: rat; strain Wistar W.74; males; in feed; site: any site (literature study); lesion: malignant tumor; dosed 104 weeks; study length 105 weeks
Activity calls are given as the source filed them. The rule behind the calls is not given here.
test_readout: TD50

Memo: [Cl][Cd][Cl] , reported TD50: 47.4 mg/kg/day (inactive)

---

Test system: rodent lifetime carcinogenesis bioassay, tumor incidence TD50
Experiment: carcinogenic potency in animals, long-term in vivo studies, CPDB compilation (AID 1745844)
Details: rat; strain Wistar; females; inhaled; site: liver; lesion: cholangioma; dosed 78 weeks; study length 150 weeks
test_readout: TD50

GET /value?item= ClC#CCl &field=TD50 returns 3.86 mg/kg/day

---

Tested on: rodent lifetime carcinogenesis bioassay, tumor incidence TD50
Assay: carcinogenic potency in animals, long-term in vivo studies, CPDB compilation (AID 1745844)
Conditions: rat; strain Charles River CD (Sprague-Dawley); females; i.p.; site: mammary gland; lesion: carcinoma; dosed 26 weeks; study length 78 weeks
test_readout: TD50 (mg/kg/day)
Give just the number in mg/kg/day; leave the unit off.

TD50 reported for this molecule CN(N=O)C(=O)N[C@@H](C=O)[C@@H](O)[C@H](O)[C@H](O)CO : 1.41

---

Test system: rodent lifetime carcinogenesis bioassay, tumor incidence TD50
Assay: carcinogenic potency in animals, long-term in vivo studies, CPDB compilation (AID 1745844)
Details: rat; strain Fischer 344; males; in drinking water; site: skin; lesion: squamous-cell carcinoma + squamous-cell papilloma; dosed 104 weeks; study length 104 weeks
test_readout: TD50

Query Cc1ccc(S(=O)(=O)Oc2ccc(N=Nc3ccc(-c4ccc(N=Nc5c(O)ccc6cc(S(=O)(=O)O)cc(S(=O)(=O)O)c56)c(C)c4)cc3C)cc2)cc1 on rodent lifetime carcinogenesis bioassay, tumor incidence TD50; TD50 returned: 12.7 mg/kg/day

---

Test system: rodent lifetime carcinogenesis bioassay, tumor incidence TD50
Assay: carcinogenic potency in animals, long-term in vivo studies, CPDB compilation (AID 1745844)
Settings: rat; strain Fischer 344; females; by gavage; site: tongue; lesion: squamous-cell carcinoma + squamous-cell papilloma; dosed 91 weeks; study length 105 weeks
test_readout: TD50 (mg/kg/day)
Number only, in mg/kg/day; omit the unit.

For ClCC(Cl)CCl the compound record lists TD50 as 4.7

---

Test system: rodent lifetime carcinogenesis bioassay, tumor incidence TD50
Test: carcinogenic potency in animals, long-term in vivo studies, CPDB compilation (AID 1745844)
Conditions: mouse; strain Swiss; females; i.p.; site: all sites; lesion: leukemia; dosed 26 weeks; study length 76 weeks
test_readout: TD50 (mg/kg/day)
Write the number in mg/kg/day without appending the unit.

Readout TD50 for CNNCc1ccc(C(=O)NC(C)C)cc1 , test system rodent lifetime carcinogenesis bioassay, tumor incidence TD50, was 3.72

---

Tested on: rodent lifetime carcinogenesis bioassay, tumor incidence TD50
Assay: carcinogenic potency in animals, long-term in vivo studies, CPDB compilation (AID 1745844)
Settings: mouse; strain B6C3F1; females; in feed; site: any site (literature study); lesion: several types; types named in the paper; dosed 103 weeks; study length 106 weeks
test_readout: TD50
Please provide the amount together with its unit, number first.

Nc1cc(S(=O)(=O)[O-])cc2cc(S(=O)(=O)[O-])c(N=Nc3ccc(-c4ccc(N=Nc5c(S(=O)(=O)[O-])cc6cc(S(=O)(=O)[O-])cc(N)c6c5O)c(O)c4)cc3O)c(O)c12.[Cu].[Cu].[Na+].[Na+].[Na+].[Na+] yielded TD50 of 1530 mg/kg/day

---

System: rodent lifetime carcinogenesis bioassay, tumor incidence TD50
Assay: carcinogenic potency in animals, long-term in vivo studies, CPDB compilation (AID 1745844)
Details: rat; strain Sprague-Dawley; males; inhaled; site: kidney; lesion: nephroblastoma; dosed 52 weeks; study length 139 weeks
test_readout: TD50 (mg/kg/day)
# unit: mg/kg/day | format: bare number

Please fill in: TD50 reported for C=CCl = 28.9

---

Test system: rodent lifetime carcinogenesis bioassay, tumor incidence TD50
Experiment: carcinogenic potency in animals, long-term in vivo studies, CPDB compilation (AID 1745844)
Conditions: mouse; strain B6C3F1; females; by gavage; site: all sites; lesion: hemangioma + hemangiosarcoma; dosed 104 weeks; study length 104 weeks
test_readout: TD50 (mg/kg/day)
Return type: number; implicit unit mg/kg/day.

rodent lifetime carcinogenesis bioassay, tumor incidence TD50 TD50 of COC1COC(OC2COC(OC3COC(OC4COC(OC)C(OS(=O)(=O)O)C4OS(=O)(=O)O)C(OC4OC(C(=O)O)C(OC)C(OS(=O)(=O)O)C4OS(=O)(=O)O)C3OS(=O)(=O)O)C(OS(=O)(=O)O)C2OS(=O)(=O)O)C(OS(=O)(=O)O)C1OS(=O)(=O)O (stereo unspecified) is 1700

---

System: rodent lifetime carcinogenesis bioassay, tumor incidence TD50
Assay: carcinogenic potency in animals, long-term in vivo studies, CPDB compilation (AID 1745844)
Settings: rat; strain Fischer 344; males; in drinking water; site: liver; lesion: several types; types named in the paper; dosed 78 weeks; study length 104 weeks
Calls of active or inactive are those of the source. The rule behind the calls is not given here.
test_readout: TD50

Entry ClCCl ; TD50 = 3660 mg/kg/day (inactive)

---

System: rodent lifetime carcinogenesis bioassay, tumor incidence TD50
Assay: carcinogenic potency in animals, long-term in vivo studies, CPDB compilation (AID 1745844)
Settings: mouse; strain Charles River CD1; males; by gavage; site: lung; lesion: alveolar/bronchiolar adenoma; dosed 78 weeks; study length 78 weeks
Active and inactive are the calls of the source. How the calls were made is not given here.
test_readout: TD50

Short answer for C=CC=O : TD50 was 526 mg/kg/day (inactive)

---

System: rodent lifetime carcinogenesis bioassay, tumor incidence TD50
Assay: carcinogenic potency in animals, long-term in vivo studies, CPDB compilation (AID 1745844)
Settings: mouse; strain B6C3F1; males; in feed; site: lung; lesion: alveolar/bronchiolar adenoma + alveolar/bronchiolar carcinoma; dosed 101 weeks; study length 101 weeks
test_readout: TD50 (mg/kg/day)
Return type: number; implicit unit mg/kg/day.

Entry Cc1ccc(N)cc1N , TD50 reported as 35.8

---

System: rodent lifetime carcinogenesis bioassay, tumor incidence TD50
Assay: carcinogenic potency in animals, long-term in vivo studies, CPDB compilation (AID 1745844)
Settings: mouse; strain B6C3F1; males; inhaled; site: liver; lesion: hepatocellular adenoma + hepatocellular carcinoma + neoplastic nodule; dosed 60 weeks; study length 60 weeks
test_readout: TD50 (mg/kg/day)
Record the value in mg/kg/day, omitting the unit from your answer.

The value of TD50 measured for the compound C=CC=C turned out to be 541

---

Tested on: rodent lifetime carcinogenesis bioassay, tumor incidence TD50
Assay: carcinogenic potency in animals, long-term in vivo studies, CPDB compilation (AID 1745844)
Settings: mouse; strain B6C3F1; females; in drinking water; site: lung; lesion: alveolar/bronchiolar adenoma + alveolar/bronchiolar carcinoma; dosed 90 weeks; study length 90 weeks
test_readout: TD50 (mg/kg/day)
Report the figure in mg/kg/day without appending any unit label.

Noted for C1COCCO1 : its TD50 reads 71900

These data points were gathered from PubChem BioAssay AID1745844.
